Target: CmlI (Streptomyces venezuelae, UniProt F2RB83)
Sequence (F2RB83 whole entry): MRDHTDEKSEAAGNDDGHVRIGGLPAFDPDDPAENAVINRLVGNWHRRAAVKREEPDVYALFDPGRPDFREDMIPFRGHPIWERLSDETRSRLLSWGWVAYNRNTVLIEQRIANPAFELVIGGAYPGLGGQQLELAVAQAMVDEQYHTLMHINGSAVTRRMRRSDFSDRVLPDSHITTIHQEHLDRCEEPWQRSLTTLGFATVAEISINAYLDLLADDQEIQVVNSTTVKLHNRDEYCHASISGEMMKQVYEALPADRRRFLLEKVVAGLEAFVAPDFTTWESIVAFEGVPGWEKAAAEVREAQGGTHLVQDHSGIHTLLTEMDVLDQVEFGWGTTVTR
Experiment: stopped-flow at […] nm, hyperbolic fit of reciprocal relaxation times
Type: binding
measurement-type: Kd (µM)

> print(dat)
                           smiles.structure  quantitative.readout
1  O=C(N[C@H](CO)[C@H](O)c1ccc(NO)cc1)C(Cl)Cl                  1100

###

List of pKd values.
Biological target: CmlI (Streptomyces venezuelae)
Test: stopped-flow at […] nm, hyperbolic fit of reciprocal relaxation times
Type: binding
pKd: −log10 of the molar value.
measurement-type: pKd

> print(dat)
                           smiles.structure  measurement.type  quantitative.readout
1  O=Nc1ccc([C@@H](O)[C@@H](CO)NC(=O)C(Cl)Cl)cc1               pKd                  2.07
2  Nc1ccc([C@@H](O)[C@@H](CO)NC(=O)C(Cl)Cl)cc1               pKd                  2.07
